Molecular target: human glucagon-like peptide 1 receptor (GLP-1R) (human, UniProt P43220)
Assay: cell-based or functional assay
Starred links: 1 amine or outer side, 2 acyl side, 3 side chain; linkers in the order of their positions; H or OH if unused. Non-standard residues stand in square brackets, D forms with d. Groups on a side chain read outwards from the residue. *: point of attachment. γGlu = O=C(O)[C@H](CCC(=O)[*:2])N[*:1]; Palmitoyl = CCCCCCCCCCCCCCCC(=O)*; 3Pal = N[C@@H](Cc1cccnc1)C(=O)O; hSer = N[C@@H](CCO)C(=O)O; Aib = CC(C)(N)C(=O)O
measurementLabel: EC50 (nM) GLP-1R, cAMP formation
The reply should contain only the number, in nM.

Annotate the binder H-H[Aib][hSer]GTFTSDYSKYLDSK([γGlu-Palmitoyl])AAHDFVEWLLSA-NH2 [Compound 29] with its measured EC50 (nM) GLP-1R, cAMP formation.
0.05

Annotate the binder H-H[Aib][3‑(2-thienyl)alanyl]GTFTSDYSKYLDSK([γGlu-Palmitoyl])AAHDFVEWLLSA-NH2 [Compound 26] with its measured EC50 (nM) GLP-1R, cAMP formation.
0.08

Annotate the binder H-H[Aib][3‑(2-furyl)alanyl]GTFTSDYSKYLDSK([γGlu-Palmitoyl])AAHDFVEWLLSA-NH2 [Compound 22] with its measured EC50 (nM) GLP-1R, cAMP formation.
0.06

Annotate the binder H-H[Aib][3‑(1,2,4-triazol-1-yl)alanyl]GTFTSDYSKYLDSK([γGlu-Palmitoyl])AAHDFVEWLLSA-NH2 [Compound 25] with its measured EC50 (nM) GLP-1R, cAMP formation.
0.09

Annotate the binder H-H[Aib][3‑(3-thienyl)alanyl]GTFTSDYSKYLDSK([γGlu-Palmitoyl])AAHDFVEWLLSA-NH2 [Compound 27] with its measured EC50 (nM) GLP-1R, cAMP formation.
0.27

Annotate the binder H-H[Aib][3Pal]GTFTSDYSKYLDSK([γGlu-Palmitoyl])AAHDFVEWLLSA-NH2 [Compound 24] with its measured EC50 (nM) GLP-1R, cAMP formation.
0.14

Annotate the binder H-H[Aib][3‑(1-pyrazolyl)alanyl]GTFTSDYSKYLDSK([γGlu-Palmitoyl])AAHDFVEWLLSA-NH2 [Compound 28] with its measured EC50 (nM) GLP-1R, cAMP formation.
0.11

Annotate the binder H-H[Aib][3‑(4-thiazolyl)alanyl]GTFTSDYSKYLDSK([γGlu-Palmitoyl])AAHDFVEWLLSA-NH2 [Compound 23] with its measured EC50 (nM) GLP-1R, cAMP formation.
0.11

src = patent US20130157929A1
